Data provenance is paper PMC8099913.

target.entity: Pcs60 (Saccharomyces cerevisiae)
Type: binding, S. cerevisiae
run.conditions: T=36 °C; fitted ∆Cp = 6.7 kcal/molK; read-out: Kd (isothermal analysis, fitted ∆Cp)
observed.property: Kd (µM)
Give bare numbers, in µM.

Quick note, Kd for Nc1ncnc2c1ncn2[C@@H]1O[C@H](CO[P@](=O)(O)O[P@](=O)(O)O[P@@](=O)(O)S)[C@@H](O)[C@H]1O landed at 14.9

----------
target.entity: Pcs60 (Saccharomyces cerevisiae)
Format: binding, S. cerevisiae
run.conditions: T=44 °C; fitted ∆Cp = 6.7 kcal/molK; read-out: Kd (isothermal analysis, fitted ∆Cp)
observed.property: pKd
Numbers only, as −log10 of the molar value.

Quick note, pKd for Nc1ncnc2c1ncn2[C@@H]1O[C@H](CO[P@](=O)(O)O[P@](=O)(O)O[P@@](=O)(O)S)[C@@H](O)[C@H]1O landed at 4.49

----------
target.entity: Pcs60 (Saccharomyces cerevisiae)
Assay type: binding, S. cerevisiae
run.conditions: Tiso 40 °C; ∆Cp = 0; read-out: Kd (isothermal analysis of nDSF)
observed.property: Kd (µM)
Answers are plain numbers, in µM.

Quick note, Kd for Nc1ncnc2c1ncn2[C@@H]1O[C@H](CO[P@](=O)(O)O[P@](=O)(O)O[P@@](=O)(O)S)[C@@H](O)[C@H]1O landed at 18.4

----------
target.entity: wild-type Pcs60 (Saccharomyces cerevisiae, UniProt P38137)
Sequence (P38137 whole entry): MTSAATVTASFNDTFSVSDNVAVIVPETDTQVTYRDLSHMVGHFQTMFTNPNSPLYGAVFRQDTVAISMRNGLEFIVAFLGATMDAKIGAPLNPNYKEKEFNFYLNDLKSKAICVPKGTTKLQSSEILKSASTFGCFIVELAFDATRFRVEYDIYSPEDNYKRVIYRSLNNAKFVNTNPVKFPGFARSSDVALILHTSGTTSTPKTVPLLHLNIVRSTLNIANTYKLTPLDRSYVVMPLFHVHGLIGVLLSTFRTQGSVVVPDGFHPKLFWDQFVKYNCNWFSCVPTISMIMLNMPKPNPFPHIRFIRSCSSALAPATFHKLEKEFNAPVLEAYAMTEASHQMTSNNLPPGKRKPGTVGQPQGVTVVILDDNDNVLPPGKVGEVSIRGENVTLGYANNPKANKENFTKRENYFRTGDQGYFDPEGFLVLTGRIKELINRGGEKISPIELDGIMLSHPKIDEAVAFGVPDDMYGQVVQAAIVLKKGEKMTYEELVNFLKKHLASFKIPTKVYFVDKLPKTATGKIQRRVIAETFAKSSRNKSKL
protocol.text: biochemical
Assay type: binding, S. cerevisiae
run.conditions: isothermal analysis, read-out: Kd values (summary in legend)
observed.property: Kd

The value of Kd recorded for Nc1ncnc2c1ncn2[C@@H]1O[C@H](CO[P@](=O)(O)O[P@](=O)(O)O[P@@](=O)(O)S)[C@@H](O)[C@H]1O when tested on wild-type Pcs60 (Saccharomyces cerevisiae, UniProt P38137) reads ~20 µM

----------
target.entity: UniProtKB P38137
Format: binding, S. cerevisiae
run.conditions: read-out: Kd,app,model1 (melting temperature analysis); single-site model, Eq. (1); first transition
observed.property: Kd (µM)
One number for each entry, in µM.

Quick note, Kd for Nc1ncnc2c1ncn2[C@@H]1O[C@H](CO[P@](=O)(O)O[P@](=O)(O)O[P@@](=O)(O)S)[C@@H](O)[C@H]1O landed at 144

----------
target.entity: Pcs60 (Saccharomyces cerevisiae)
Format: binding, S. cerevisiae
run.conditions: T=40 °C; fitted ∆Cp = 6.7 kcal/molK; read-out: Kd (isothermal analysis, fitted ∆Cp)
observed.property: pKd
Give bare numbers, as −log10 of the molar value.

Quick note, pKd for Nc1ncnc2c1ncn2[C@@H]1O[C@H](CO[P@](=O)(O)O[P@](=O)(O)O[P@@](=O)(O)S)[C@@H](O)[C@H]1O landed at 4.77

----------
target.entity: wild-type Pcs60 (Saccharomyces cerevisiae, UniProt P38137)
protocol.text: biochemical
Format: binding, S. cerevisiae
run.conditions: read-out: Kd,app Model 2 (melting temperature analysis)
observed.property: Kd (µM)
Answers are plain numbers, in µM.

Quick note, Kd for Nc1ncnc2c1ncn2[C@@H]1O[C@H](CO[P@](=O)(O)O[P@](=O)(O)O[P@@](=O)(O)S)[C@@H](O)[C@H]1O landed at 15.6

----------
target.entity: wild-type Pcs60 (Saccharomyces cerevisiae, UniProt P38137)
protocol.text: biochemical
Type: binding, S. cerevisiae
run.conditions: T=46 °C, ∆Cp = 0, read-out: Kd (isothermal analysis)
observed.property: Kd (µM)
Give bare numbers, in µM.

Quick note, Kd for Nc1ncnc2c1ncn2[C@@H]1O[C@H](CO[P@](=O)(O)O[P@](=O)(O)O[P@@](=O)(O)S)[C@@H](O)[C@H]1O landed at 28.7

----------
target.entity: wild-type Pcs60 (Saccharomyces cerevisiae, UniProt P38137)
protocol.text: biochemical
Format: binding, S. cerevisiae
run.conditions: T=52 °C, ∆Cp = 0, read-out: Kd (isothermal analysis)
observed.property: pKd
Answers are plain numbers, as −log10 of the molar value.

Quick note, pKd for Nc1ncnc2c1ncn2[C@@H]1O[C@H](CO[P@](=O)(O)O[P@](=O)(O)O[P@@](=O)(O)S)[C@@H](O)[C@H]1O [γS-ATP] landed at 3.84

----------
target.entity: wild-type Pcs60 (Saccharomyces cerevisiae)
protocol.text: biochemical
Assay type: binding, S. cerevisiae
run.conditions: T=44 °C, ∆Cp = 0, read-out: Kd (isothermal analysis)
observed.property: pKd
Answers are plain numbers, as −log10 of the molar value.

Quick note, pKd for Nc1ncnc2c1ncn2[C@@H]1O[C@H](CO[P@](=O)(O)O[P@](=O)(O)O[P@@](=O)(O)S)[C@@H](O)[C@H]1O landed at 4.60

----------
target.entity: Pcs60 (Saccharomyces cerevisiae)
Assay type: binding, S. cerevisiae
run.conditions: heating rate 1 °C/min; ∆Cp fitted 6.7 kcal/mol; Tsel 38 °C; read-out: Kd,Tsel
observed.property: Kd (µM)
Answers are plain numbers, in µM.

Quick note, Kd for Nc1ncnc2c1ncn2[C@@H]1O[C@H](CO[P@](=O)(O)O[P@](=O)(O)O[P@@](=O)(O)S)[C@@H](O)[C@H]1O [γS-ATP] landed at 17

----------
target.entity: Pcs60 (Saccharomyces cerevisiae, UniProt P38137)
Sequence (P38137 whole entry): as above
Format: binding, S. cerevisiae
run.conditions: read-out: Kd,app,model2 (melting temperature analysis); model 2, Eq. (4); first transition
observed.property: Kd (µM)
Give bare numbers, in µM.

Quick note, Kd for Nc1ncnc2c1ncn2[C@@H]1O[C@H](CO[P@](=O)(O)O[P@](=O)(O)O[P@@](=O)(O)S)[C@@H](O)[C@H]1O landed at 10.2

----------
target.entity: Pcs60 (Saccharomyces cerevisiae, UniProt P38137)
Type: binding, S. cerevisiae
run.conditions: T=48 °C; fitted ∆Cp = 6.7 kcal/molK; read-out: Kd (isothermal analysis, fitted ∆Cp)
observed.property: pKd
Answers are plain numbers, as −log10 of the molar value.

Quick note, pKd for Nc1ncnc2c1ncn2[C@@H]1O[C@H](CO[P@](=O)(O)O[P@](=O)(O)O[P@@](=O)(O)S)[C@@H](O)[C@H]1O landed at 4.56

----------
target.entity: Pcs60 (Saccharomyces cerevisiae, UniProt P38137)
Format: binding, S. cerevisiae
run.conditions: heating rate 3 °C/min; ∆Cp fitted 6.7 kcal/mol; Tsel 39 °C; read-out: Kd,Tsel
observed.property: Kd (µM)
Answers are plain numbers, in µM.

Quick note, Kd for Nc1ncnc2c1ncn2[C@@H]1O[C@H](CO[P@](=O)(O)O[P@](=O)(O)O[P@@](=O)(O)S)[C@@H](O)[C@H]1O [γS-ATP] landed at 19

----------
target.entity: Pcs60 (Saccharomyces cerevisiae)
Assay type: binding, S. cerevisiae
run.conditions: heating rate 5 °C/min; ∆Cp default 0 kcal/mol; Tsel 39 °C; read-out: Kd,Tsel
observed.property: pKd
Give bare numbers, as −log10 of the molar value.

Quick note, pKd for Nc1ncnc2c1ncn2[C@@H]1O[C@H](CO[P@](=O)(O)O[P@](=O)(O)O[P@@](=O)(O)S)[C@@H](O)[C@H]1O landed at 4.64
